# System Name: 5-hydroxytryptamine receptor 1A (Homo sapiens, UniProt P08908)
# Sequence (P08908 whole entry): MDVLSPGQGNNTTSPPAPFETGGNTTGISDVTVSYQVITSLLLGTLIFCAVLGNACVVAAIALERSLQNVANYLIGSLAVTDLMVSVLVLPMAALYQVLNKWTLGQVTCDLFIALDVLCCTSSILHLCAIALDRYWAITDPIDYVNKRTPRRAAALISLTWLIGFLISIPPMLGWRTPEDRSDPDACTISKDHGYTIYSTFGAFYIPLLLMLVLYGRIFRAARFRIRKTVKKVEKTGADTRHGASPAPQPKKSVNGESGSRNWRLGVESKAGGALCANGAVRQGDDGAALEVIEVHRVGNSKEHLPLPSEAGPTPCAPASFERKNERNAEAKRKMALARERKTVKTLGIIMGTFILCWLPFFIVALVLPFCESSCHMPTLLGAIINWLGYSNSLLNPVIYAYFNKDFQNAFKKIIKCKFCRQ
# Assay Details: Displacement of [3H]8-OH-DPAT from human recombinant 5HT1A receptor expressed in HEK293 cells
Would you kindly list Ki for each of these compounds?
Give bare numbers, in nM.

Return reported Ki values for all items listed beneath this line.
1. O=C1Cc2ccccc2N1C/C=C\CN1CCN(c2cccc3ccccc23)CC1
2. O=C1Cc2ccccc2N1CCCCN1CCc2ccccc2C1
3. O=C1Cc2ccccc2N1CCCCN1CCN(c2ccccc2)CC1

1. 11.5
2. 219
3. 124

* * *

# System Name: 5-hydroxytryptamine receptor 7 (Homo sapiens, UniProt P34969)
# Sequence (P34969 whole entry): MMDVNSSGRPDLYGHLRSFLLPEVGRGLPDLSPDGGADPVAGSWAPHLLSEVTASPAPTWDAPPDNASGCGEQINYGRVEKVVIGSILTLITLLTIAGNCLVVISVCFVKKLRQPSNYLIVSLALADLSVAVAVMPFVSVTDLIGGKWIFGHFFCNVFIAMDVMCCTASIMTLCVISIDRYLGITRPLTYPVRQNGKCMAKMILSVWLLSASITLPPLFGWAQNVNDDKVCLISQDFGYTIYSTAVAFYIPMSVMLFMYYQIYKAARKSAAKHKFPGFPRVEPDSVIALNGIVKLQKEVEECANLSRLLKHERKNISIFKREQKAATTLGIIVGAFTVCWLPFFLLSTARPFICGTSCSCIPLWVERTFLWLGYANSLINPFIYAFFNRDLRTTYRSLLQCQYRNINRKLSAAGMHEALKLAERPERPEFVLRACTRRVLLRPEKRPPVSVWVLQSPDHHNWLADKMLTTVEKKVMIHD
# Assay Details: Displacement of [3H]LSD from human recombinant 5HT7 receptor expressed in CHOK1 cells
Measured Property: Ki (nM)
Give bare numbers, in nM.

[
  {
    "Smiles String": "O=C1Cc2ccccc2N1CCCCCN1CCN(c2cccc3[nH]cnc23)CC1",
    "Unit Info": "nM",
    "Test Result": 68
  },
  {
    "Smiles String": "O=C1Cc2ccccc2N1CCCCN1CCC(c2ccccc2)CC1",
    "Unit Info": "nM",
    "Test Result": 160
  },
  {
    "Smiles String": "O=C1Cc2ccccc2N1C/C=C/CN1CCN(c2cccc3ccccc23)CC1",
    "Unit Info": "nM",
    "Test Result": 69
  }
]

For each of the items listed, what is its Ki?
1. O=C1Cc2ccccc2N1CCCCN1CCN(c2cccc3ccccc23)CC1
2. O=C1Cc2ccccc2N1CCCCN1CCc2ccccc2C1
3. O=C1Cc2ccccc2N1CCN1CCc2ccccc2C1
4. COc1ccccc1N1CCN(CCCCN2C(=O)Cc3ccccc32)CC1
5. COc1ccccc1N1CCN(CCCCCN2C(=O)Cc3ccccc32)CC1

47
7
350
32
63

* * *

# System Name: 5-hydroxytryptamine receptor 7 (Homo sapiens, UniProt P34969)
# Assay Details: Antagonist activity at human recombinant 5HT7 receptor expressed in CHOK1 cells assessed as inhibition of serotonon-induced increase in cAMP levels by HTRF assay relative to untreated control
Measured Property: IC50 (nM)
Numbers only, in nM.

5-hydroxytryptamine receptor 7 (Homo sapiens, UniProt P34969) IC50 of CN1C[C@@H](NS(=O)(=O)N(C)C)C[C@@H]2c3cccc4c3c(cn4C)C[C@H]21 [MESULERGINE] is 120

* * *

# System Name: 5-hydroxytryptamine receptor 7 (Homo sapiens, UniProt P34969)
# Assay Details: Displacement of [3H]LSD from human recombinant 5HT7 receptor expressed in CHOK1 cells
Give measured pKi for each item. Keep answers brief.
Answers are plain numbers, as −log10 of the molar value.

Solved entries (count: 8):
[
  {
    "Compound": "O=C1c2ccccc2CN1CCCCCN1CCN(c2ccccc2)CC1",
    "pKi": 6.69
  },
  {
    "Compound": "O=C1Cc2ccccc2N1CCCCN1CCN(c2ccccc2)CC1",
    "pKi": 7.13
  },
  {
    "Compound": "O=C1Cc2ccccc2N1C/C=C\\CN1CCN(c2cccc3ccccc23)CC1",
    "pKi": 6.60
  },
  {
    "Compound": "O=C1Cc2ccccc2N1CCCN1CCc2ccccc2C1",
    "pKi": 6.98
  },
  {
    "Compound": "O=C1Cc2ccccc2N1CCCCCN1CCN(c2cccc3ccccc23)CC1",
    "pKi": 7.16
  },
  {
    "Compound": "COc1ccccc1N1CCN(CCCCN2Cc3ccccc3C2=O)CC1",
    "pKi": 6.80
  },
  {
    "Compound": "O=C1Cc2ccccc2N1CCCCN1CCCC(c2ccccc2)C1 (stereo not given)",
    "pKi": 6.71
  },
  {
    "Compound": "O=C1Cc2ccccc2N1CCCCCN1CCN(c2ccccc2)CC1",
    "pKi": 7.20
  }
]

The recorded pKi for entry "O=C1c2cccc3cccc(c23)N1CCCCCN1CCN(c2ccccc2)CC1" equals 7.05
